- Tested on: HGGX39 (paediatric high-grade glioma line)
- METHOD_NOTES: maximal growth inhibition (yFin) relative to DMSO / staurosporine; higher = more efficacious
Answer criterion not met if maximal growth inhibition is under 70%, and criterion met if it is 70% or more.

- COMPOUND_STRUCTURE_STRING: "C[C@@H](Oc1cc(-c2cnn(C3CCNCC3)c2)cnc1N)c1c(Cl)ccc(F)c1Cl"
  DISCRETE_LABEL: "criterion met"
- COMPOUND_STRUCTURE_STRING: "O=C(c1ccccc1)c1ccc2nc(NC(=O)c3csc(C4CCN(c5ncnc6ccsc56)CC4)n3)[nH]c2c1"
  DISCRETE_LABEL: "criterion not met"
- COMPOUND_STRUCTURE_STRING: "CCCCCCCCCCCC[N+](C)(C)CCOc1ccccc1"
  DISCRETE_LABEL: "criterion met"
- COMPOUND_STRUCTURE_STRING: "CCNC(=O)c1noc(-c2cc(C(C)C)c(O)cc2O)c1-c1ccc(CN2CCOCC2)cc1"
  DISCRETE_LABEL: "criterion met"
- COMPOUND_STRUCTURE_STRING: "O=C1[C@H](Cc2ccc(O)cc2)N2C(=O)CCN(C(=O)NCc3ccccc3)[C@H]2CN1Cc1cccc2ccccc12"
  DISCRETE_LABEL: "criterion not met"
- COMPOUND_STRUCTURE_STRING: "CCCSc1ccc2[nH]c(NC(=O)OC)nc2c1"
  DISCRETE_LABEL: "criterion not met"
- COMPOUND_STRUCTURE_STRING: "CCN(CC)CCOCCOC(=O)C(CC)(CC)c1ccccc1"
  DISCRETE_LABEL: "criterion not met"
- COMPOUND_STRUCTURE_STRING: "C[C@@]12OC(=O)[C@]1([C@@H](O)[C@@H]1C=CCCC1)NC(=O)[C@@H]2CCCl"
  DISCRETE_LABEL: "criterion met"
- COMPOUND_STRUCTURE_STRING: "CCCCOc1ccc(CC(=O)NO)cc1"
  DISCRETE_LABEL: "criterion met"
- COMPOUND_STRUCTURE_STRING: "Cc1cn(CCN2CCN(c3ccccc3-c3cc(C#N)cc(C(=O)NCCCN4CCCC4)c3)CC2)c2ccccc12"
  DISCRETE_LABEL: "criterion met"
- COMPOUND_STRUCTURE_STRING: "CCCCCCCCOc1ccccc1C(=O)Nc1ccc(C(=O)OCC[N+](C)(CC)CC)cc1"
  DISCRETE_LABEL: "criterion met"
- COMPOUND_STRUCTURE_STRING: "CNC(=O)c1ccccc1Sc1ccc2c(/C=C/c3ccccn3)n[nH]c2c1"
  DISCRETE_LABEL: "criterion not met"
- COMPOUND_STRUCTURE_STRING: "O=C(Nc1ccc(Nc2nccc(Nc3cc(C4CCCC4)[nH]n3)n2)cc1)Nc1cccc(C(F)(F)F)c1"
  DISCRETE_LABEL: "criterion met"
- COMPOUND_STRUCTURE_STRING: "CC[C@H](C)C(=O)O[C@H]1CCC=C2C=C[C@H](C)[C@H](CC[C@@H]3C[C@@H](O)CC(=O)O3)[C@H]21"
  DISCRETE_LABEL: "criterion not met"
- COMPOUND_STRUCTURE_STRING: "Cc1ccc(NC(=O)c2ccc(CN3CCN(C)CC3)cc2)cc1Nc1nc(-c2cccnc2)cs1"
  DISCRETE_LABEL: "criterion met"
- COMPOUND_STRUCTURE_STRING: "COc1cc2ncnc(Nc3ccc(F)c(Cl)c3)c2cc1OCCCN1CCOCC1"
  DISCRETE_LABEL: "criterion met"
- COMPOUND_STRUCTURE_STRING: "Cc1[nH]c2ccccc2c1CCNCc1ccc(/C=C/C(=O)NO)cc1"
  DISCRETE_LABEL: "criterion met"
